Biological target: human ether-à-go-go-related gene (hERG) potassium channel (human, UniProt Q12809);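 note: peak tail current of the secondary pulse compared with the same well before compound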
Sequence (Q12809 whole entry, looked up): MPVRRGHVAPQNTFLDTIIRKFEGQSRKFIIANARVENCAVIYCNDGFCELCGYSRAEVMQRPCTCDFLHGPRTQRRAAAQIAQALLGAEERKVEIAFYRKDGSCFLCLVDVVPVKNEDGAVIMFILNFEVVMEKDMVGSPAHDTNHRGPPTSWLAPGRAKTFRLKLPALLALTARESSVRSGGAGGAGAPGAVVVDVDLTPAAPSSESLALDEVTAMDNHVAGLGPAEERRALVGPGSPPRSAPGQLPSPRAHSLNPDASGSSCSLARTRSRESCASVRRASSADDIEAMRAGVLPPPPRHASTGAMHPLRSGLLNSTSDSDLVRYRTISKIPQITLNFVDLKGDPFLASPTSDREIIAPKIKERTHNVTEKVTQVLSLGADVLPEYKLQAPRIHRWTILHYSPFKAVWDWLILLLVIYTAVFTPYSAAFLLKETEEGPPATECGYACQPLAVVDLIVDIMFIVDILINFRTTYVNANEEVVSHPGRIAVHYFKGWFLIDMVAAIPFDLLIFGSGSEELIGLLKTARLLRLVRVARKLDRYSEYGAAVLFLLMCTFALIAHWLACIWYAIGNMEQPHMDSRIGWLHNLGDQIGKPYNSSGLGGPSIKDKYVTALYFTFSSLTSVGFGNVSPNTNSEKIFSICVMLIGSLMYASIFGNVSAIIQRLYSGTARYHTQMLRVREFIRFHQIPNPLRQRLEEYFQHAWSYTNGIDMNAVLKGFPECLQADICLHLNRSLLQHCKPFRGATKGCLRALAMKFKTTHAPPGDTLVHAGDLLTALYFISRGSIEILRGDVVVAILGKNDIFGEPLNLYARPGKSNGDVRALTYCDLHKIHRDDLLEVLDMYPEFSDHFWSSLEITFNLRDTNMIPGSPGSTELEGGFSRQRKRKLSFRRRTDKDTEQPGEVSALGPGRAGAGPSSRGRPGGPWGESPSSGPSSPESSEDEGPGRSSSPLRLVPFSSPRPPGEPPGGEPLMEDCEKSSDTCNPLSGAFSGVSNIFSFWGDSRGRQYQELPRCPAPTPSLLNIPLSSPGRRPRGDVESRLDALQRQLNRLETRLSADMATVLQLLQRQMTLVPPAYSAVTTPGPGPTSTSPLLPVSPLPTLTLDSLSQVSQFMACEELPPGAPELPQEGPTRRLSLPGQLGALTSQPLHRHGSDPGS
Test: primary screen, population patch clamp on CHO cells stably expressing hERG; higher = less effect of the substance
Hit rate of the full screen: of about 310,000 compounds, about 14,000 (4.5%) showed an effect of 50% or more. Effects have a minus sign here. What follows is part of a selection rich in strong results, with near analogues and random picks from the rest.
Respond with class 1 for hERG current change (%, negative = inhibition) at 10uM values of 10% and above, class 0 for values below.

>  <SMILES_DATA>
c1ccc(Oc2ccc(-c3ccnc4ncnn34)cc2)cc1

>  <CAT>
class 1

$$$$
>  <SMILES_DATA>
c1cn(-c2ccc(-c3ccnc4ncnn34)cc2)cn1

>  <CAT>
class 0

$$$$
>  <SMILES_DATA>
O=C(COC(=O)c1cc(S(=O)(=O)N2CCCC2)ccc1O)Nc1ccc(S(=O)(=O)N2CCOCC2)cc1

>  <CAT>
class 1

$$$$
>  <SMILES_DATA>
O=C(O)c1cccc2c1C(=O)c1ccccc1C2=O

>  <CAT>
class 1

$$$$
>  <SMILES_DATA>
CCOc1ccccc1C(=O)OCC(=O)Nc1ccc(OC(F)F)cc1

>  <CAT>
class 0

$$$$

* * *

Target: human ether-à-go-go-related gene (hERG) potassium channel (human, UniProt Q12809);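 note: peak tail current of the secondary pulse compared with the same well before compound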
Test: primary screen, population patch clamp on CHO cells stably expressing hERG; higher = less effect of the substance
Out of some 310,000 compounds screened, about 14,000 (4.5%) showed an effect of 50% or more. Effects have a minus sign here. The list comes from a sample in which strong results are over-represented; it also holds close analogues and randomly drawn compounds.
PARAMETER: hERG current change (%, negative = inhibition) at 10uM (%)

>  <COMPOUND>
O=C(c1cc(COc2ccc(F)cc2F)on1)N1CCN(C2CCCC2)C(=O)C1

>  <UNIT_NAME>
%

>  <RECORDED_RESULT>
-25.8

$$$$
>  <COMPOUND>
CSc1ccccc1OCc1cc(C(=O)N2CCN(C3CCCC3)C(=O)C2)no1

>  <UNIT_NAME>
%

>  <RECORDED_RESULT>
-34.8

$$$$
>  <COMPOUND>
COC(=O)CSc1nnc(CNc2ccc(Cl)cc2)n1Cc1ccccc1

>  <UNIT_NAME>
%

>  <RECORDED_RESULT>
-54.7

$$$$
>  <COMPOUND>
O=C(c1cc(COc2c(F)cccc2F)on1)N1CCN(C2CCCCC2)C(=O)C1

>  <UNIT_NAME>
%

>  <RECORDED_RESULT>
-17.5

$$$$
>  <COMPOUND>
O=C(C1=C[C@@H](C2CCCCC2)C[C@@H](OCc2ccc(CO)cc2)O1)N1CCN(Cc2ccc3c(c2)OCO3)CC1

>  <UNIT_NAME>
%

>  <RECORDED_RESULT>
4.46

$$$$
>  <COMPOUND>
O=C(C1=C[C@@H](C2CC2)C[C@@H](OCCCCO)O1)N1CCN(Cc2ccc3c(c2)OCO3)CC1

>  <UNIT_NAME>
%

>  <RECORDED_RESULT>
-11.1

$$$$
>  <COMPOUND>
O=C(O)c1cc(-c2ccc(/C=C3\NC(=O)N(c4ccc(Cl)cc4)C3=O)o2)ccc1Cl

>  <UNIT_NAME>
%

>  <RECORDED_RESULT>
7.5

$$$$
>  <COMPOUND>
O=C(C1=C[C@@H](C2CC2)C[C@@H](OCc2ccc(CO)cc2)O1)N1CCN(Cc2ccc3c(c2)OCO3)CC1

>  <UNIT_NAME>
%

>  <RECORDED_RESULT>
-51.7

$$$$
>  <COMPOUND>
COc1ccc(OCc2cc(C(=O)N3CCN(C4CCCC4)CC3)no2)c(Cl)c1

>  <UNIT_NAME>
%

>  <RECORDED_RESULT>
-29.6

$$$$
>  <COMPOUND>
O=C(C1=C[C@H](c2ccc3c(c2)OCO3)C[C@H](OCc2ccc(CO)cc2)O1)N1CCN(Cc2ccc3c(c2)OCO3)CC1

>  <UNIT_NAME>
%

>  <RECORDED_RESULT>
-17.2

$$$$
>  <COMPOUND>
CC1Cc2ccccc2N1C(=O)COC(=O)C1=COCCO1 (stereo not drawn)

>  <UNIT_NAME>
%

>  <RECORDED_RESULT>
-7.1

$$$$
>  <COMPOUND>
C[C@H]1C=C(C(=O)N2CCN(Cc3ccc4c(c3)OCO4)CC2)O[C@@H](OCc2ccc(CO)cc2)C1

>  <UNIT_NAME>
%

>  <RECORDED_RESULT>
-70.7

$$$$
>  <COMPOUND>
COc1ccccc1CC(NC(C)=O)C(=O)NC1CCN(C(=O)Nc2ccccc2F)CC1 (stereo not drawn)

>  <UNIT_NAME>
%

>  <RECORDED_RESULT>
28.3

$$$$
>  <COMPOUND>
CC(C)(C)[C@@H]1C=C(C(=O)N2CCN(Cc3ccc4c(c3)OCO4)CC2)O[C@H](OCc2ccc(CO)cc2)C1

>  <UNIT_NAME>
%

>  <RECORDED_RESULT>
-35

$$$$
>  <COMPOUND>
CCn1c(CNc2cccc(Cl)c2)nnc1SCC(=O)OC1CCCCC1

>  <UNIT_NAME>
%

>  <RECORDED_RESULT>
-25

$$$$
>  <COMPOUND>
CC(C)OC(=O)CSc1nnc(CNc2ccc(Cl)cc2)n1Cc1ccccc1

>  <UNIT_NAME>
%

>  <RECORDED_RESULT>
-33

$$$$
>  <COMPOUND>
O=C(C1=C[C@H](C2CC2)C[C@H](OCc2ccc(CO)cc2)O1)N1CCN(Cc2ccc3c(c2)OCO3)CC1

>  <UNIT_NAME>
%

>  <RECORDED_RESULT>
-57.8

$$$$
>  <COMPOUND>
Cc1cnc(NC(=O)CSc2ccccc2)s1

>  <UNIT_NAME>
%

>  <RECORDED_RESULT>
3.88

$$$$
